pIC50: −log10 of the molar value.
Compiled from multiple publications: pIC50 readings for Matrix metalloproteinase-9 (Homo sapiens, UniProt P14780).
measured metric: pIC50

Please review the following examples before continuing.
| molecule | result |
| --- | --- |
| COc1ccc(S(=O)(=O)N(CC(C)C)C(CCSCc2ccc(OCc3ccccc3)cc2)C(=O)NO)cc1 (configuration not stated) | 8.10 |
| O=C(OCc1cccc(Br)c1)c1cccc(=O)[nH]1 | 4.17 |
| O=C(Oc1ccsc1)c1cccc(=O)[nH]1 | 4.17 |
| O=C(OCc1c(F)cc(F)cc1F)c1cccc(=O)[nH]1 | 4.48 |
| O=C(O)[C@@H](Cc1c[nH]c2ccccc12)NS(=O)(=O)c1ccc(C#Cc2ccccc2)cc1 | 6.62 |
| CCCCc1ccc(C#Cc2ccc(S(=O)(=O)N[C@@H](C(=O)O)C(C)C)s2)cc1 | 6.68 |

[1] Cc1ccc(C#Cc2ccc(S(=O)(=O)N(CCN3CCOCC3)[C@@H]3CC=CCN(O)C3=O)s2)cc1
[2] NC(=O)[C@H](Cc1cccnc1)NC(=O)[C@H](CS)NC(=O)c1ccc2[nH]nnc2c1
Prompt: Record comparison, field pIC50: mark the lower of 1 and 2 . # reply format: chosen label
Response: 2
(2: 7.38, 1: 9.10)

[1] CNC(=O)C(NC(=O)[C@H](CC(C)C)N[C@H](CCN1C(=O)c2cc3ccccc3cc2C1=O)C(=O)O)c1ccccc1 (some centres not stated)
[2] CC(C)C[C@H](N[C@H](CCN1C(=O)c2cc3ccccc3cc2C1=O)C(=O)O)C(=O)NCc1ccc(S(N)(=O)=O)cc1
[3] O=C(OCc1cc(F)ccc1F)c1cccc(S)n1
Prompt: Please rank these molecules by pIC50 in descending order. Return the labels ranked in the requested order, please.
Response: 2, 1, 3
(2: 8.17, 1: 7.85, 3: 3.85)
